target-of-assay: Serine/threonine-protein kinase Nek2 (Homo sapiens, UniProt P51955, C22V)
Sequence (P51955 whole entry C22V): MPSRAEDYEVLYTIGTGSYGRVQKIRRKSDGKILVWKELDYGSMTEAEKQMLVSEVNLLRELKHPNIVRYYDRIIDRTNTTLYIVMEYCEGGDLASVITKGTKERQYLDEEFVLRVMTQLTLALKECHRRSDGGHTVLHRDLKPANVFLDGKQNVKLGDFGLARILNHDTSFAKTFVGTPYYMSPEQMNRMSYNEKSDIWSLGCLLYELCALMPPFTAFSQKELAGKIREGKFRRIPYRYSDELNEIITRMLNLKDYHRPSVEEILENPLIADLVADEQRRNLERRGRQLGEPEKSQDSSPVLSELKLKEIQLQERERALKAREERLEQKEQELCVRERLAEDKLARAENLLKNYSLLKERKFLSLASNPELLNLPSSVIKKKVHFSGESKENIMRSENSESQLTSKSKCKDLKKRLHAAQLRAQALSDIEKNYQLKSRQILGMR
assay-overview: Inhibition of human Nek2 C22V mutant using [gamma-32P] ATP
Exercise: state measured IC50 for each of the molecules provided.
The number alone won't do; follow it with the unit.

O=C1Nc2ccc(C(=O)CCl)cc2/C1=C/c1ccc[nH]1 : 14 µM

We next turn to a different molecule, shown below.
Qu. Item C#CC(=O)Nc1ccc2c(c1)/C(=C/c1ccc[nH]1)C(=O)N2 has what recorded IC50?
Ans. 20 µM
